TESTED_ON: T1, human TREM2 Fc fusion (entire TREM2 ECD; only one Fc arm fused to TREM2) (human, UniProt Q9NZC2 19-174)
T1 construct: also called huTREM2-Fc; recombinant hTREM2
T1 sequence: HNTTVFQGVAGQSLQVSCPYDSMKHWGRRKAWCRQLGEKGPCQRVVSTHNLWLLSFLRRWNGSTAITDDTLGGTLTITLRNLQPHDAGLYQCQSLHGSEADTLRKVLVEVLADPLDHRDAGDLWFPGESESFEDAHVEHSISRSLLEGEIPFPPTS
ASSAY_TEXT: BLI, Fab, monovalent
METRIC_NAME: Kd
Write the figure, then the unit, nothing else.

Known Kd results, listed for orientation:
BINDER	RESULT
AL2p-37 (antibody, IgG1, V domains shown, Fab and IgG formats under one id; also called AL2p-37 huIgG1) VH: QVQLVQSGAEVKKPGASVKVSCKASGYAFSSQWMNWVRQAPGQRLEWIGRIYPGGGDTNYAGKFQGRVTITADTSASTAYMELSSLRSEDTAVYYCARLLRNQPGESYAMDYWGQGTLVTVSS VL: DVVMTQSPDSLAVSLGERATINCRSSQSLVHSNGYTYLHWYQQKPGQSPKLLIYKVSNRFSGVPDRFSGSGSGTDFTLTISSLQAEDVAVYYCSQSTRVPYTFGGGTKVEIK	23.8 nM
AL2p-25 (antibody, V domains shown, Fab and IgG formats under one id) VH: QVQLVQSGAEVKKPGSSVKVSCKASGYAFSSHWMNWVRQAPGQGLEWMGRIYPGGGDTNYAQKFRGRVTITADESTSTAYMELSSLRSEDTAVYYCARLLRNQPGESYAMDYWGQGTLVTVSS VL: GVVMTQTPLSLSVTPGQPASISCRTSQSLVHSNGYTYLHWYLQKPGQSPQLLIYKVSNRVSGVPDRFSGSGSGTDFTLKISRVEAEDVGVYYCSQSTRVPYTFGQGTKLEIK	2.34 nM

Request: Return Kd for the following binder: AL2p-59 (antibody, V domains shown, Fab and IgG formats under one id) VH: QVQLVQSGAEVKKPGSSVKVSCKASGYAFSSHWMNWVRQAPGQGLEWMGRIYPGEGQTNYAQKRQGRVTITADESTSTAYMELSSLRSEDTAVYYCARLLRNQPGESYAMDYWGQGTLVTVSS VL: GVVMTQTPLSLSVTPGQPASISCRTSQSLVHSNQYTYLHWYLQKPGQSPQLLIYKVSNRVSGVPDRFSGSGSGTDFTLKISRVEAEDVGVYYCSQSTRVPYTFGQGTKLEIK
Response: 3.85 nM
